- tgt: Human cytomegalovirus protease (assemblin, UL80)
- protocol.text: In vitro inhibitory activity against HCMV (human cytomegalovirus) protease using scintillation proximity assay
IC50 strictly less than 500 nM = Criterion met. Otherwise Criterion not met.

Look over these answered cases.
[[record]]
mol = "Cc1nc2nnc(-c3ccc([N+](=O)[O-])cc3)nn2c(=O)c1C"
tgt = "Human cytomegalovirus protease (assemblin, UL80)"
category = "Criterion not met"

[[record]]
mol = "Cc1ccc(-c2nnc3nc(C)c(C)c(=O)n3n2)cc1"
tgt = "Human cytomegalovirus protease (assemblin, UL80)"
category = "Criterion met"

[[record]]
mol = "Cc1nc2nnc(C(c3ccccc3)c3ccccc3)nn2c(=O)c1C"
tgt = "Human cytomegalovirus protease (assemblin, UL80)"
category = "Criterion not met"

[[record]]
mol = "Cc1nnc2nc(C)c(C)c(=O)n2n1"
tgt = "Human cytomegalovirus protease (assemblin, UL80)"
category = "Criterion met"

[[record]]
mol = "Cc1nc2nnc(-c3ccccc3)nn2c(=O)c1C"
tgt = "Human cytomegalovirus protease (assemblin, UL80)"
category = "Criterion met"


Query :: Decide: IC50 of Cc1nc2nncnn2c(=O)c1C strictly below 500 nM?
Result :: Criterion met

Query :: Also Cc1nc2nnc(C(C)(C)C)nn2c(=O)c1C , if possible.
Result :: Criterion not met
